- EXPERIMENTAL DETAILS: maximum solubility in PBS + solutol
- Format: physicochemical
- CONDITION NOTES: aqueous with cosolvent or surfactant or cyclodextrin; in PBS+2 wt % solutol
QUANTITY NAME: solubility (µg/mL)

I = CCN1C[C@@H]2C[C@@H](OC)c3c(C(=O)NCc4ccc(F)cc4F)c(=O)c(O)c(n32)C1=O [active ingredient 2]
II = C[C@]12CCCO[C@H]1Cn1cc(C(=O)NCc3ccc(F)cc3F)c(=O)c(O)c1C2=O [active ingredient 1]
Ask: In terms of reported solubility, does I or II have the smaller number? Identify your pick by its label.
Result: II
(II: 150 µg/mL, I: 310 µg/mL)

src = patent US20190216725A1
